# PROCEDURE SUMMARY: physchem
# TEST CONTEXT: fessif, thermodynamic from solid
OBSERVED PROPERTY: solubility kinetic at 4 h (µg/mL)
# value in µg/mL; strip the unit string

Task item: Fill blank: measured solubility kinetic at 4 h of the compound C=CC(=O)N(C)CCOc1c(N)ncnc1-c1cc(F)cc(NC(=O)c2ccc(C3CC3)cc2F)c1C [Form J] is ____.
Reply: 53

====

# PROCEDURE SUMMARY: physchem
# TEST CONTEXT: water, thermodynamic from solid
OBSERVED PROPERTY: solubility kinetic at 24 h (µg/mL)
# value in µg/mL; strip the unit string

Task item: Fill blank: measured solubility kinetic at 24 h of the compound C=CC(=O)N(C)CCOc1c(N)ncnc1-c1cc(F)cc(NC(=O)c2ccc(C3CC3)cc2F)c1C [Form J] is ____.
Reply: 19
